Reference for the values: patent US6635637B2

biological target: human α-thrombin (Homo sapiens, UniProt P00734)
measure: pKi
Give bare numbers, as −log10 of the molar value.

Incoming: Provide one value: measured pKi of CS(=O)(=O)c1ccccc1S(=O)(=O)Oc1cc(Cl)cc(OCC2CCN(C(=N)N)OC2)c1 (stereo not shown) [Example 2]
Outgoing: 7.89
